Molecular target: EGFR kinase (Homo sapiens, UniProt P00533)
Sequence (P00533 25-1210): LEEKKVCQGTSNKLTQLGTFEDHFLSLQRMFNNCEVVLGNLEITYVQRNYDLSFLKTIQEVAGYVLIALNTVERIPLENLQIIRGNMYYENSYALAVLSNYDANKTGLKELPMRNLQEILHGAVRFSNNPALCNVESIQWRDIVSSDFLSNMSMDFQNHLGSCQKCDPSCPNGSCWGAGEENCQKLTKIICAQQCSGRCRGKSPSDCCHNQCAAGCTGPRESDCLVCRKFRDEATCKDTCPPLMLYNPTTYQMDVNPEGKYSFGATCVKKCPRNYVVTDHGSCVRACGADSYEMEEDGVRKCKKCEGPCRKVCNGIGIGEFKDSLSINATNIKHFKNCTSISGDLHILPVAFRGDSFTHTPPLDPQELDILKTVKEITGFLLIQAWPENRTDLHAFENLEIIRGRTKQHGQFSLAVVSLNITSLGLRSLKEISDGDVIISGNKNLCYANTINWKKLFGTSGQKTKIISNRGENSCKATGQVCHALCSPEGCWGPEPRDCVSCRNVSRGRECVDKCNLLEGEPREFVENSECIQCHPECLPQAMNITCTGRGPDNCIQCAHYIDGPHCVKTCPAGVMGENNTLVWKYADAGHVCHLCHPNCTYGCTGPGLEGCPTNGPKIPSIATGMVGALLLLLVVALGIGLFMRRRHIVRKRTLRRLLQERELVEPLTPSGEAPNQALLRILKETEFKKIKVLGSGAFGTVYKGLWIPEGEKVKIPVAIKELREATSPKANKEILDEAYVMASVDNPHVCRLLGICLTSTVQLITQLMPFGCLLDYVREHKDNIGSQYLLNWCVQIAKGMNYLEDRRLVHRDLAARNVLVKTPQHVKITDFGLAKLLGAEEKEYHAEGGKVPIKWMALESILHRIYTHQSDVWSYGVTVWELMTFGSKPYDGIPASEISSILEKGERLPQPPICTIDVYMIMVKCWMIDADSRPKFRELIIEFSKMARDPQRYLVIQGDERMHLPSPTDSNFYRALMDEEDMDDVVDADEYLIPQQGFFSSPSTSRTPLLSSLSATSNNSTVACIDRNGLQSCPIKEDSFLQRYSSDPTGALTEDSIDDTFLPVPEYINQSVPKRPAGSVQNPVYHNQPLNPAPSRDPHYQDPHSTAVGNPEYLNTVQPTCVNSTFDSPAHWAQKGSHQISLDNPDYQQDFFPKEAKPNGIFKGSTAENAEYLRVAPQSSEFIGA
Test: Enzymatic experiment on EGFR (HTRF kinEASE-TK)
Type: biochemical
Details: ATP 1.65 μM; read-out: Kinase IC50 (nM) in vitro EGFR
Give measured IC50 for each item. Keep answers brief.
I only need the number, in nM, no unit after it.

// query Given the entry Cc1cc(Nc2ncnc3ccc(-n4ccc(CNCCS(C)(=O)=O)c4)cc23)ccc1Oc1cc2nncn2cn1 [Embodiment 86] , report its measured IC50.
// result 7.7

// query IC50 lookup needed for COCC(=O)Nc1cccc(-c2ccc3ncnc(Nc4ccc(Oc5cc6nncn6cn5)c(C)c4)c3c2)c1 [Embodiment 34] , thanks.
// result 8.2

// query Look up IC50: CCC1COC(Nc2ccc3ncnc(Nc4ccc(Oc5cc6nncn6cn5)c(C)c4)c3c2)=N1 (stereo not shown) [Embodiment 129]
// result 56.9

// query Please report the recorded IC50 for Cc1cc(Nc2ncnc3ccc(-c4cc(CNCCS(C)(=O)=O)co4)cc23)ccc1Oc1cc2nncn2cn1 [Embodiment 62] .
// result 14.2

Ref: patent US10828305B2
